FYI, the data here is from ChEMBL document CHEMBL2016550.

# ASSAYED SYSTEM: Phosphatidylinositol 4,5-bisphosphate 3-kinase catalytic subunit delta isoform (Homo sapiens, UniProt O00329)
# Sequence (O00329 whole entry, canonical isoform): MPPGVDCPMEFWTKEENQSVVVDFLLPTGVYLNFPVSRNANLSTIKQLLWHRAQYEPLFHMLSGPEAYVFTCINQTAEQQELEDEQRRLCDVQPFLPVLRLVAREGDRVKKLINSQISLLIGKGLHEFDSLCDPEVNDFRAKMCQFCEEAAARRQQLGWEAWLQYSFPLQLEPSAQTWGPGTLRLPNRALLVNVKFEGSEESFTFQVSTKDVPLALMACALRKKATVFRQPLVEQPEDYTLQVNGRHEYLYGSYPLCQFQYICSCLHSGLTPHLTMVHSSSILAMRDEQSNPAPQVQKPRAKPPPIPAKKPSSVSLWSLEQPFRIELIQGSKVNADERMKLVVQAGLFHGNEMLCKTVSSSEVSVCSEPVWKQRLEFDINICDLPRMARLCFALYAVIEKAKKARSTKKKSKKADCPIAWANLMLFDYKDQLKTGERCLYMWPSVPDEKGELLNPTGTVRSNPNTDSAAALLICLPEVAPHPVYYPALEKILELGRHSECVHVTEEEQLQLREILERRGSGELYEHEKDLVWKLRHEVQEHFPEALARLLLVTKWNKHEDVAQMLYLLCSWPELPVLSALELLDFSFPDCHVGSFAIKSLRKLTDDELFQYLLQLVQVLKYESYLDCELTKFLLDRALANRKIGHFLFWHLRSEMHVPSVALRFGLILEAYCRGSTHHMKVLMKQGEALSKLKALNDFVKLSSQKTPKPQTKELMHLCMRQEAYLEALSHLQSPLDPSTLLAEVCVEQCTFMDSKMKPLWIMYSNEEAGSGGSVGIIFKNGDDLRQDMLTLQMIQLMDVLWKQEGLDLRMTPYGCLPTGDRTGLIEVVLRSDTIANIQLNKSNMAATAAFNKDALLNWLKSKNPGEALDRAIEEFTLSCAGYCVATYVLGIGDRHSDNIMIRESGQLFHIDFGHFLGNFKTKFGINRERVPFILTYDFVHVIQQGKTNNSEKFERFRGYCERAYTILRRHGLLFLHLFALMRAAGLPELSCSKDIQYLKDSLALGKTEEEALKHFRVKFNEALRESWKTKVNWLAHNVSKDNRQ
# TEST DESCRIPTION: Inhibition of PI3Kdelta by continuous read time resolved fluorescence resonance energy transfer displacement assay
QUANTITY KIND: IC50

1. CSc1nn2c(=O)cc(N3CCOCC3)nc2n1Cc1cccc(Cl)c1Cl : 31 nM
2. Cc1c(Cn2c(C3CC3)nn3c(=O)cc(N4CCOCC4)nc23)cccc1C(F)(F)F : 40 nM
3. CSc1nn2c(=O)cc(N3CCOCC3)nc2n1Cc1cccc(C(F)(F)F)c1C : 25 nM
4. CSc1nn2c(=O)cc(-c3ccncc3)nc2n1Cc1cccc(Cl)c1Cl : 79 nM
5. Cc1nn2c(=O)cc(N3CCOCC3)nc2n1Cc1cccc(Cl)c1Cl : 50 nM
6. Cc1c(Cn2c(C)cn3c(=O)cc(N4CCOCC4)nc23)cccc1C(F)(F)F : 7.9 nM
7. O=c1cc(N2CCOCC2)nc2n(Cc3cccc(Cl)c3Cl)c(C3CC3)nn12 : 130 nM
